measured.on: α-ketoamide reductase (Saccharomyces cerevisiae, UniProt Q07551)
Construct: 500 g of live baker's yeast was purchased from Oriental yeast and the fungal cells were used to purify the enzyme; tissue Oriental Yeast; host or cells: live baker's yeast cells; enzyme purified to a single SDS-PAGE band
Sequence (Q07551 1-312): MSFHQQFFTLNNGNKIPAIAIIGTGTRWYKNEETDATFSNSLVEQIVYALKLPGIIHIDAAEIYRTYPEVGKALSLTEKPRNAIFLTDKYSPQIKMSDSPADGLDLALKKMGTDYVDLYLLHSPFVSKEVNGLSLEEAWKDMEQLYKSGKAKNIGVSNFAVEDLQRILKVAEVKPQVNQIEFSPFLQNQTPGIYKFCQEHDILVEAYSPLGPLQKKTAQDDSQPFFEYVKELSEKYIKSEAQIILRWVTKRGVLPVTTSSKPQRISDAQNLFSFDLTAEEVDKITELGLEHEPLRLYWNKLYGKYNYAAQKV
method.summary: Substrate specificity of α-ketoamide reductase (relative reducing activity)
Assay type: biochemical
study.conditions: activity of reducing 2-chlorobenzoyl formamide taken as 100, substrate concentration 1 mM
measured.property: Reducing activity (%)
// return numeric value only (unit: %, not printed)

CC1(C)COC(=O)C1=O :: 19
CCCCCC(=O)C(=O)OCC [drawing 10] :: 50

State, in one line, measured Reducing activity (%) of NC(=O)C(=O)c1ccccc1Cl [2-chlorobenzoyl formamide]
100

State, in one line, measured Reducing activity (%) of CCOC(=O)C(=O)C(C)C [drawing 11]
71

State, in one line, measured Reducing activity (%) of NC(=O)C(=O)c1ccc(Cl)cc1
71

State, in one line, measured Reducing activity (%) of C=CCC(C(C)=O)C(=O)OCC (centres unmarked)
0

State, in one line, measured Reducing activity (%) of CC(=O)c1ccccc1
0

State, in one line, measured Reducing activity (%) of CCCCC(=O)C(=O)OCC
49
